target: HLA-DR4 (DRB1*0401) (human); experiment: competition binding; conditions: chains peptide; modification not given
measurement_name: IC50

Below: 3 binders and their reported IC50.
binder	IC50
RSPVFTDNSSPPVVPQSFQVAHLHAPTGSGKSTK [17N 1206-1239]	425 nM
AQGYKVLVLNPSVAATLGFGAYMSKAHGID [18N 1246-1275]	5 nM
GREILLGPADGMVSKGWRLLAPITAYAQQTR [8N 1007-1037]	10 nM

stdin: Can you look up the measured IC50 of DPNIRTGVRTITTGSPITYSTYGKFLADGG [19N 1275-1304] for me?
stdout: 500 nM
